- Test system: RARg:RXRa (NR concentration 270 nM, RXRa partner concentration 90 nM)
- Test: PBM binding z-score (relative to random genomic background probes); higher = stronger binding; sequences stand for … in GC…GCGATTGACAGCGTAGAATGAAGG
Our labelling divides records by PBM binding z-score into ranges: bottom (below 0.6), middle (0.6 to below 3), top (3 or more)

Polymer sequence	Target under test	Assigned class
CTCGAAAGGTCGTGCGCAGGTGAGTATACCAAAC	RARg:RXRa (NR concentration 270 nM, RXRa partner concentration 90 nM)	top
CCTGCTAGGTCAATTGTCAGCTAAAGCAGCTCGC	RARg:RXRa (NR concentration 270 nM, RXRa partner concentration 90 nM)	top
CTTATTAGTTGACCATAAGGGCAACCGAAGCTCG	RARg:RXRa (NR concentration 270 nM, RXRa partner concentration 90 nM)	middle
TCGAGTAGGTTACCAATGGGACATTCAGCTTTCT	RARg:RXRa (NR concentration 270 nM, RXRa partner concentration 90 nM)	middle
AGAACGAGGTTATTAAGATCAGGGAATTGCGGTC	RARg:RXRa (NR concentration 270 nM, RXRa partner concentration 90 nM)	middle
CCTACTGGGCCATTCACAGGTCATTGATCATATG	RARg:RXRa (NR concentration 270 nM, RXRa partner concentration 90 nM)	middle
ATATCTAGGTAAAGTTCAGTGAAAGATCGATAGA	RARg:RXRa (NR concentration 270 nM, RXRa partner concentration 90 nM)	middle
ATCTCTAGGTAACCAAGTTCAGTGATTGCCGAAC	RARg:RXRa (NR concentration 270 nM, RXRa partner concentration 90 nM)	bottom
TCTGCTAGGTCAACGATGGTCTGCTAATCTGCTA	RARg:RXRa (NR concentration 270 nM, RXRa partner concentration 90 nM)	top
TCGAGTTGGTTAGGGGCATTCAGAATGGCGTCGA	RARg:RXRa (NR concentration 270 nM, RXRa partner concentration 90 nM)	bottom
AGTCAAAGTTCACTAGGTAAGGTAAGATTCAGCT	RARg:RXRa (NR concentration 270 nM, RXRa partner concentration 90 nM)	top
AGAATGAGGGTACCAAAGATCAGGGAAACGCTTG	RARg:RXRa (NR concentration 270 nM, RXRa partner concentration 90 nM)	bottom
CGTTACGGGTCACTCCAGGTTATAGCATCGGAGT	RARg:RXRa (NR concentration 270 nM, RXRa partner concentration 90 nM)	top
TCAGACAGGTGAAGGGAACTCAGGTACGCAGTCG	RARg:RXRa (NR concentration 270 nM, RXRa partner concentration 90 nM)	bottom
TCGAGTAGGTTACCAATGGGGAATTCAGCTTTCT	RARg:RXRa (NR concentration 270 nM, RXRa partner concentration 90 nM)	bottom
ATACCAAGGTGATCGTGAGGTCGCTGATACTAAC	RARg:RXRa (NR concentration 270 nM, RXRa partner concentration 90 nM)	middle

# credit: the supplement of paper PMC6555819
